# Measured target: 5-hydroxytryptamine receptor 1B (Homo sapiens, UniProt P28222)
# Sequence (P28222 whole entry): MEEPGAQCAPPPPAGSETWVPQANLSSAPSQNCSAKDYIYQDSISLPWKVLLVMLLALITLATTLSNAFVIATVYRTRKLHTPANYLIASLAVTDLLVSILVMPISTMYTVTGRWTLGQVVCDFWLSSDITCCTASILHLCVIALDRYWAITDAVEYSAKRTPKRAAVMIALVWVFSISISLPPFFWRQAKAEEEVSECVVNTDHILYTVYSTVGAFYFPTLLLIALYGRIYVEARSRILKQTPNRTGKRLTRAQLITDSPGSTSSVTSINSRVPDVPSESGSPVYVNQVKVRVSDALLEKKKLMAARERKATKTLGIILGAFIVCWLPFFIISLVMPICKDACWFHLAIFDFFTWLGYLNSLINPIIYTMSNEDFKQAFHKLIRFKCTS
# Test details: Displacement of [3H]5-HT binding from the cloned human 5-hydroxytryptamine 1B receptor stably expressed in CHO cells
# Type: cell-based
I'd appreciate it if you could supply IC50 values for the items below.
Numbers only, in nM.

Examples with answers:
Smiles notation: c1cncc(CNC[C@@H]2CCN(CCc3c[nH]c4ccc(-n5cnnc5)cc34)C2)c1
Meas value: 62
--
Smiles notation: c1cc(CNC[C@@H]2CCN(CCc3c[nH]c4ccc(-n5cnnc5)cc34)C2)ccn1
Meas value: 110
--
Smiles notation: c1ccc(CO[C@H]2CCN(CCc3c[nH]c4ccc(-n5cnnc5)cc34)C2)cc1
Meas value: 275

Go through the items and report each one's IC50.
1. c1coc(CNC[C@@H]2CCN(CCc3c[nH]c4ccc(-n5cnnc5)cc34)C2)c1
2. c1ccc(CNC[C@@H]2CCN(CCc3c[nH]c4ccc(Cn5cncn5)cc34)C2)cc1
3. c1cc(CNC[C@@H]2CCN(CCc3c[nH]c4ccc(-n5cnnc5)cc34)C2)co1

[out]
1. 20
2. 260
3. 12

Go through the items and report each one's IC50.
1. C[C@H](NC[C@@H]1CCN(CCc2c[nH]c3ccc(C[C@H]4COC(=O)N4)cc23)C1)c1ccccc1
2. c1ccc(CNC[C@H]2CCN(CCc3c[nH]c4ccc(-n5cnnc5)cc34)C2)cc1
3. c1ccc(COC[C@H]2CCCN2CCc2c[nH]c3ccc(-n4cnnc4)cc23)cc1

[out]
[49, 47, 575]

Provenance of the data: ChEMBL document CHEMBL1132587
